Taken from the supplement of paper PMC10065799.

Each record here notes measured phosphorylation enrichment.
# System: Fer (mouse);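 note: 11-residue human phosphosite peptides and single-mutation variants displayed on the E. coli surface, counted by deep sequencing, each peptide's frequency after selection divided by its frequency in the unselected input library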;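 note: frequency after pTyr selection over input frequency; kinase dosed for 20-30% of maximal phosphorylation in three min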
# assay_summary: phosphorylation enrichment, bacterial display (enrichment ratio); higher = better substrate or ligand; peptides without Tyr show the background
Just the number, please, no unit after it.

- construct_sequence: "NKEAIYSGYIR [SMCHD1_Y283]"
  quantitative_readout: 3.43

stdin: Give the value of phosphorylation enrichment reported for the following: QTEGEYSSLEH [IDH3B_Y171]
stdout: 0.836

stdin: Give the value of phosphorylation enrichment reported for the following: IFHENYNAGTY [CFI_Y421]
stdout: 1.01

stdin: Give the value of phosphorylation enrichment reported for the following: ALKWGYTVKGI [OAT_Y158_R154L]
stdout: 0.445

stdin: Give the value of phosphorylation enrichment reported for the following: PLDNLYAEPAV [PRPS1_Y146_V142L]
stdout: 4.92

stdin: Give the value of phosphorylation enrichment reported for the following: DLVHPYVHKIL [SF3B1_Y570_R568H]
stdout: 0.497

stdin: Give the value of phosphorylation enrichment reported for the following: PSELYYSKIGP [SMG1_Y2254]
stdout: 16.3

stdin: Give the value of phosphorylation enrichment reported for the following: LITTLYIGFLD [KCNQ1_Y267_G272D]
stdout: 1.78
